Entry source: patent US5529989A

Test Summary: water solubility
Format: physicochemical
Outcome Measure: solubility

Endpoint output: solubility of O=C1N[C@H]2[C@H](O)[C@H](O)[C@@H](O)[C@H](O)[C@@H]2c2cc3c(c(OP(=O)(O)O)c21)OCO3 [compound (5), Disodium 7-Phosphoryl-Pancratistatin] . Value?
> 230 mg/mL
